system: Fibroblast; test: Multiplex assay against human fibroblast; assay type: toxicity, cell-based; details: 24 h, 10 µM, compound concentration 10 uM, replicate 1
Binarize Population Healthy Nuclei (%) at 50%; below is criterion met, at or above is criterion not met.

Some entries whose results are on file:
Cn1nc(C(F)(F)F)cc1-c1cnc(N2CCc3cc(S(=O)(=O)Nc4c(F)cc(Cl)cc4F)cc(N4CCCC4=O)c32)nc1 [TP-020] :: criterion not met
COc1ccc(S(=O)(=O)N(CCO)c2ccccc2CN(C)C/C=C/c2ccc(Cl)cc2)cc1.O=P(O)(O)O :: criterion not met
NC(=O)c1cccc(-c2cc(Nc3ccc(OC(F)(F)F)cc3)ncn2)c1 :: criterion not met

Ask | Strictly below 50% in Population Healthy Nuclei (%)? CCOc1cc(C(=O)N2CCC(N3CCN(C)CC3)CC2)ccc1Nc1ncc2c(n1)N(C1CCCC1)c1ccccc1C(=O)N2C
Reply | criterion met

Ask | Lab note: confirm whether the reported Population Healthy Nuclei (%) for this molecule is below 50%, equality not counting. molecule: CCCS(=O)(=O)c1nc(NC2CC2)cc(-c2ccc3c(ccn3C3CC(C)(C)NC(C)(C)C3)c2)n1
Reply | criterion met

###

The following molecules are listed with their measured Growth Rate values.
system: HEK-293T; experiment: Incucyte cell viability with HEK293T; type: toxicity, cell-based; conditions: human, 6 h, 10 µM, compound concentration 10 uM, replicate number 1, timepoint 6 hours; note: filed as whole numbers so only -1 and 0 and 1 occur

Answered examples (5):
CC(=O)c1c(NS(C)(=O)=O)c2cc(-c3ccc(Cl)cc3)c(-c3ccc(Cl)cc3Cl)nc2n(C)c1=O :: 0
CC1(C)CCC(C)(C)c2cc(NC(=O)c3ccc(C(=O)O)cc3)ccc21 :: 1
Cc1cc(C)c(S(=O)(=O)N(Cc2ccc(-c3cccc(S(C)(=O)=O)c3)cc2)Cc2ccc(C(F)(F)F)o2)c(C)c1 :: 0
CCCc1c(OCCCOc2ccc(OCC(=O)O)cc2)ccc(C(C)=O)c1O :: 1
Cl.O=C(O)Cc1cccc(OCCCN(Cc2cccc(C(F)(F)F)c2Cl)CC(c2ccccc2)c2ccccc2)c1 :: 1

Form: molecule = C=C1/C(=C\C=C2/CCC[C@]3(C)[C@@H]([C@H](C)/C=C/[C@H](C)C(C)C)CC[C@@H]23)C[C@@H](O)C[C@@H]1O ; Growth Rate = 0

Kindly note the recorded Growth Rate for CCCNS(=O)(=O)Nc1ncnc(OCCOc2ncc(Br)cn2)c1-c1ccc(Br)cc1 , which is 0

So for O=C(Cc1ccc(-c2ccc(OCCN3CCOCC3)cc2)cn1)NCc1ccccc1 , the logged Growth Rate turned out to be 0

// field: Growth Rate; key: NC(CCP(=O)(O)O)C(=O)O (racemic) ; value = 1

In plain terms, Cc1cn(-c2cc(NC(=O)c3ccc(C)c(Nc4nccc(-c5cccnc5)n4)c3)cc(C(F)(F)F)c2)cn1 has a documented Growth Rate of 0

The recorded Growth Rate for entry N#Cc1c[nH]c2c(C(=O)N3CCN(CCc4ccc(F)cc4)CC3)cccc12 equals 0

###

// reported Population Healthy Nuclei (%) per item
test system: HEK-293T; experiment: Multiplex assay against HEK293T; assay type: toxicity, cell-based; settings: human, 48 h, 1 µM, compound concentration 1 uM, replicate 1
Expressed in %, but write only the number.

CCOC(=O)c1c(C)[nH]c2ccc3c(c12)CN1CCc2cc(OC)ccc2C1O3 (centres undefined) :: 70

According to the records, this molecule Cc1ccc(C(=O)Nc2cccc(C(F)(F)F)c2)cc1Nc1nc(-c2cccnc2)nc2c1cnn2C displays Population Healthy Nuclei (%) of 45

Recorded Population Healthy Nuclei (%) (molecule CCN1CCN(Cc2ccc(Nc3ncc(F)c(-c4cc(F)c5nc(C)n(C(C)C)c5c4)n3)nc2)CC1.CS(=O)(=O)O ): 28

What the record says about CCCS(=O)(=O)c1nc(NC2CC2)cc(-c2ccc3c(ccn3C3CC(C)(C)NC(C)(C)C3)c2)n1 : Population Healthy Nuclei (%) is 47

###

A collection of compounds and their measured Population Apoptotic (%)
system: HEK-293T; assay: Multiplex assay against HEK293T; type: toxicity, cell-based; settings: human, 48 h, 1 µM, compound concentration 1 uM, replicate 2
Response body: numeric value in %, unit text excluded.

Reference set (3 entries):
O=C(Nc1ccc(-n2nc(-c3cccnc3)cc2C(F)(F)F)cn1)c1ccc(-c2ccccc2)c(F)c1 :: 11
CCn1c(=O)c(-c2ccc(-c3cncs3)cc2Cl)cc2cnc(Nc3ccc(N4CCN(C)CC4)cc3)nc21 :: 11
CN(C)C(=O)C(CCN1CCC(O)(c2ccc(Cl)cc2)CC1)(c1ccccc1)c1ccccc1.Cl [LOPERAMIDE HYDROCHLORIDE] :: 71

Field Population Apoptotic (%) (entry Cc1cn(-c2cc(NC(=O)c3ccc(C)c(Nc4nccc(-c5cccnc5)n4)c3)cc(C(F)(F)F)c2)cn1 ) reads 16

###

system: Fibroblast; assay: Multiplex assay against human fibroblast; type: toxicity, cell-based; conditions: 48 h, 1 µM, compound concentration 1 uM, replicate 1
Rule: Population Apoptotic (%) of 60% or more gives Condition met; anything lower gives Condition not met.

Ask | Identify whether the reported Population Apoptotic (%) of the following molecule is 60% or greater: O=C1N/C(=N/c2ccccc2F)S/C1=C\c1ccc(C(=O)O)cc1
Reply | Condition not met

Ask | In plain terms: is recorded Population Apoptotic (%) at least 60% for O=C(Nc1ccc(Cl)cc1)Nc1cccc(-c2cccc(N3CCCC3)n2)c1 ?
Reply | Condition not met

Ask | Can CN(C)C(=O)C(CCN1CCC(O)(c2ccc(Cl)cc2)CC1)(c1ccccc1)c1ccccc1.Cl [LOPERAMIDE HYDROCHLORIDE] be said to have Population Apoptotic (%) at or above 60%?
Reply | Condition met

Ask | Check if Population Apoptotic (%) >= 60% (inclusive). Item: Cc1cc(C)c(S(=O)(=O)N(Cc2ccc(-c3cccc(S(C)(=O)=O)c3)cc2)Cc2ccc(C(F)(F)F)o2)c(C)c1
Reply | Condition met

###

tested on: Fibroblast; experiment: Incucyte cell viability with human fibroblast; format: toxicity, cell-based; conditions: 18 h, 10 µM, compound concentration 10 uM, replicate number 2, timepoint 18 hours; note: filed as whole numbers so only -1 and 0 and 1 occur
List of Growth Rate values.
# answer = number (no unit)

Cc1cnc(Nc2ccc(F)cc2Cl)nc1-c1c[nH]c(C(=O)N[C@H](CO)c2cccc(Cl)c2)c1 :: 1
NS(=O)(=O)c1c(Cl)ccc(NC(=O)Nc2cccc(Cl)c2Cl)c1O :: 0
Cc1oncc1C(=O)Nc1ccc(C(F)(F)F)cc1 [LEFLUNOMIDE] :: 0

The measured Growth Rate that C[C@]12CCC(=O)C=C1CC[C@@H]1[C@@H]2[C@@H](O)C[C@]2(C=O)[C@@H](C(=O)CO)CC[C@@H]12 [ALDOSTERONE] showed for Fibroblast is 0

###

test system: HEK-293T; assay: Multiplex assay against HEK293T; type: toxicity, cell-based; conditions: human, 12 h, 10 µM, compound concentration 10 uM, replicate 1
Consider the cut-off 50%. If the recorded Population Healthy Nuclei (%) is strictly smaller, the label is MET; if not, the label is NOT MET.

Check out these entries, answers already filled in.
CCn1c(=O)c(-c2ccc(-c3cncs3)cc2Cl)cc2cnc(Nc3ccc(N4CCN(C)CC4)cc3)nc21 :: MET
CCN1CCN(c2ccc(Nc3cc(N(C)C(=O)Nc4c(Cl)c(OC)cc(OC)c4Cl)ncn3)cc2)CC1 :: NOT MET

Ask | Is it true that Population Healthy Nuclei (%) reported for COc1cc2ncnc(Nc3ccc(F)c(Cl)c3)c2cc1NC(=O)/C=C/CN1CCCCC1 [DACOMITINIB ANHYDROUS] is less than 50%?
Reply | NOT MET

Ask | Criterion: Population Healthy Nuclei (%) strictly below 50%. Is it met by O=C(Cc1ccc(-c2ccc(OCCN3CCOCC3)cc2)cn1)NCc1ccccc1 ?
Reply | MET

Ask | Determine whether this compound shows Population Healthy Nuclei (%) lower than 50% (ties excluded): CN1CCN(C(=O)C(C)(C)c2ccc(C(=O)Nc3cn4cc(-c5cc(C(C)(C)C)cc(C(C)(C)C)c5)ccc4n3)cc2)CC1
Reply | MET

###

The reader will find reported Population Mitotic Cells (%) values listed item by item below.
tested on: U2OS; assay: Multiplex assay against U2OS; type: toxicity, cell-based; settings: human, 12 h, 10 µM, compound concentration 10 uM, replicate 1
Write down the numeric answer in % and omit the unit.

Cc1ccc2nc(NCCN)c3ncc(C)n3c2c1.O=C(O)C(F)(F)F.O=C(O)C(F)(F)F :: 71
Cc1ccc(C(=O)Nc2cccc(C(F)(F)F)c2)cc1Nc1nc(-c2cccnc2)nc2c1cnn2C :: 30
COc1cc(N2CCN(C)CC2)ccc1Nc1ncc2c(n1)N(C)c1ccccc1C(=O)N2C :: 39

Then there is this compound:
Measured Population Mitotic Cells (%), CN1CCN(C(=O)C(C)(C)c2ccc(C(=O)Nc3cn4cc(-c5cc(C(C)(C)C)cc(C(C)(C)C)c5)ccc4n3)cc2)CC1 [T3-CLK-N] : 72
